B1: LINE1-mini (parent)
chain: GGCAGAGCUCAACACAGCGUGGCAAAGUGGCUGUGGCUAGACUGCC

Variants of: B1
Experiment: self-cleavage, relative activity (ratio to wild type); higher = more cleavage; in vitro, sequencing; the parent is a self-cleaving ribozyme
Entries and their self-cleavage values follow.
Keep the answer to the number alone.

Would you please look over these solved cases?
GGCAAAGCUCCACACAGCGUGGCAAAGUGGCUGUGGCUAGACUGCC [G5A A11C] ... 0.03
GGCAGGGCUCAACACAGCGUGGCAACGUGGCUGUGGCUAGACUGCC [A6G A26C] ... 0.14
GGCGGAGCUCAACACAGCGUGGCAAAGUGGCUGUGGCUAUACUGCC [A4G G40U] ... 0.15

For reference, reported self-cleavage for GGCAGAGCUCAACACAGCGUGGAAAAGUGGCUGUGGGUAGACUGCC [C23A C37G] stands at 0.02

Data point: GGCUGUGCUCAACACAGCGUGGCAAAGUGGCUGUGGCUAGACUGCC [A4U A6U] ; self-cleavage = 0.13

Value of measured self-cleavage for the entry GGCAGAGCUCAACACAGCGUGGCAAAGUGUCUGUGGCUAGACUGUC [G30U C45U] : 1.11
